FYI, the data here is from patent US20170253581A1.

Each entry below lists one item and its recorded remaining activity at 100 µM value.
Target: Myc/Max binding to DNA (Homo sapiens, UniProt P01106)
Sequence (P01106 whole entry): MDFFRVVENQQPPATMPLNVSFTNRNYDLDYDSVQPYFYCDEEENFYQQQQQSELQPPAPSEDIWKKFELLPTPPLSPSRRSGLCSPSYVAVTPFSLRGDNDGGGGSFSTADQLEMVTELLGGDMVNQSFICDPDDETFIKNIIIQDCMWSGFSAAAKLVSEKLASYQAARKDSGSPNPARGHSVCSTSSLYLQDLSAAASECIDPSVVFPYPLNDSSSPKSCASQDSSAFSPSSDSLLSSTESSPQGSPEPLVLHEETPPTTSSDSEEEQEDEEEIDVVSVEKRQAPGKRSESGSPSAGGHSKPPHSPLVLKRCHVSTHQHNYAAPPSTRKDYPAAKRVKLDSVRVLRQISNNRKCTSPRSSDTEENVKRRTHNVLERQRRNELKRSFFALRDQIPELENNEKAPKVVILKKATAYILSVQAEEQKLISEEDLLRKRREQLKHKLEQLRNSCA
Test: Electrophoretic mobility shift assay (EMSA) of Myc/Max binding to DNA
Type: biochemical
Settings: EMSA, 100 uM test compound; read-out: Bound DNA (%) (100uM)
Return type: number; implicit unit %.

// field: remaining activity at 100 µM; key: N#Cc1ccc(-c2c(-c3ccc(OCc4ccc(Cl)cc4)cc3O)n[nH]c2C(F)(F)F)cc1 ; value = 4

// field: remaining activity at 100 µM; key: CCOC(=O)c1[nH]nc(-c2ccc(OCc3ccc(Cl)cc3)cc2O)c1-c1ccc(C#N)cc1 ; value = 100

// field: remaining activity at 100 µM; key: Cc1ccc(C)c(Oc2cn(C)nc2-c2ccc(OCCN3CCCCC3)cc2O)c1 ; value = 138

// field: remaining activity at 100 µM; key: Cn1nc(-c2ccc(OCc3ccc(Cl)cc3)cc2O)c(-c2ccc(C(F)(F)F)c(Cl)c2)c1C(F)(F)F ; value = 43

// field: remaining activity at 100 µM; key: C/C(=N\N)c1ccc(-c2c(-c3ccc(OCc4ccc(Cl)cc4)cc3O)n[nH]c2C(F)(F)F)cc1 ; value = 109

// field: remaining activity at 100 µM; key: Cc1ccc(-c2c[nH]nc2-c2ccc(OCc3ccc(Cl)cc3)cc2O)cc1 ; value = 102

// field: remaining activity at 100 µM; key: Cn1cc(-c2ccccc2)c(-c2ccc(OCc3ccc(Cl)cc3)cc2O)n1 ; value = 97

----------
Target: Myc/Max binding to DNA (Homo sapiens, UniProt P01106)
Experiment: Electrophoretic mobility shift assay (EMSA) of Myc/Max binding to DNA
Assay type: biochemical
Details: EMSA, 100 uM test compound
Measurement Type: Bound DNA (%) (100uM)
Return type: number; implicit unit %.

Use the examples below as a reference point.
[
  {
    "Compound": "Oc1cc(Nc2ccc(Cl)cc2)ccc1-c1cc(C(F)(F)F)[nH]n1 [compound 0200491]",
    "Unit Text": "%",
    "Bound DNA (%) (100uM)": 0
  },
  {
    "Compound": "CCc1ccc(Oc2c(-c3ccc(O)cc3O)nn(C)c2C(F)(F)F)cc1 [compound 0200682]",
    "Unit Text": "%",
    "Bound DNA (%) (100uM)": 95
  },
  {
    "Compound": "Oc1cc(Nc2ccc(Cl)cc2)ccc1-c1cc(C(F)(F)F)[nH]n1 [compound 0200679]",
    "Unit Text": "%",
    "Bound DNA (%) (100uM)": 38
  }
]

// field: Bound DNA (%) (100uM); key: CCc1ccc(Oc2c(-c3ccc(O)cc3O)nn(C)c2C(F)(F)F)cc1 [compound 0198411] ; value = 30

----------
Biological target: Myc/Max binding to DNA (Homo sapiens, UniProt P01106)
Test: Electrophoretic mobility shift assay (EMSA) of Myc/Max binding to DNA
Assay type: biochemical
Conditions: EMSA, 50 uM test compound; read-out: Bound DNA (%) (50uM)
Measurement Type: remaining activity at 50 µM (%)
Return type: number; implicit unit %.

[
  {
    "Smiles Str": "Oc1cc(NCc2ccc(Cl)cc2)ccc1-c1cc(C(F)(F)F)[nH]n1",
    "remaining activity at 50 µM / %": 92
  },
  {
    "Smiles Str": "CCOC(=O)c1[nH]nc(-c2ccc(OCc3ccc(Cl)cc3)cc2O)c1-c1ccc(C#N)cc1",
    "remaining activity at 50 µM / %": 99
  },
  {
    "Smiles Str": "COc1ccc(-c2c(-c3ccc(O)cc3O)n[nH]c2C(F)(F)F)cc1OC",
    "remaining activity at 50 µM / %": 98
  },
  {
    "Smiles Str": "Cc1ccc(-c2c(C(F)(F)F)n[nH]c2-c2cc(OCc3ccc(Cl)cc3)ccc2O)cc1",
    "remaining activity at 50 µM / %": 85
  },
  {
    "Smiles Str": "Cn1nc(C(F)(F)F)c(-c2ccc(F)c(C(F)(F)F)c2)c1-c1ccc(OCc2ccc(Cl)cc2)cc1O",
    "remaining activity at 50 µM / %": 84
  }
]

// field: remaining activity at 50 µM; key: CN1CCN(c2ccc(-c3cc(C(F)(F)F)[nH]n3)c(O)c2)CC1 ; value = 117

// field: remaining activity at 50 µM; key: CCc1ccc(Oc2c(-c3ccccc3O)nn(C)c2C(F)(F)F)cc1 ; value = 102

// field: remaining activity at 50 µM; key: CCc1ccc(Oc2c(-c3ccc(Nc4ccc(Cl)cc4)cc3O)n[nH]c2C(F)(F)F)cc1 ; value = 96

// field: remaining activity at 50 µM; key: Cn1nc(C(F)(F)F)cc1-c1ccc(N)cn1 ; value = 102
